src = paper PMC5883364

- Test system: HepG2-A16 (human hepatoma) cells
- test_context: human, 48 h
- Protocol: Cytotoxicity was assessed on the mammalian cell lines HepG2-A16 (human hepatoma) and V79 (Chinese hamster lung), using a MTT based assay, as previously described. […] V79 and HepG2 cell lines were incubated for 24 and 48 h, respectively (media changed at 24 h intervals). Absorbance was read at 570 nm on a multi-mode microplate reader (Triad, Dynex Technologies), to produce a log dose-dependence curve. […]
endpoint_name: LD50 HepG2 (mM)
One number for each entry, in mM.

Below: 3 molecules and their reported LD50 HepG2.
>>> reading("O=S1(=O)N=C(NCC2CCC3(CC2)OOC2(O3)C3CC4CC(C3)CC2C4)c2ccccc21 (stereo not shown)")
1.0
>>> reading("C[C@H]1[C@@H](O)O[C@@H]2O[C@@]3(C)CC[C@H]4[C@H](C)CC[C@@H]1[C@@]24OO3 [DHA, dihydroartemisinin, reference compound]")
1.0
>>> reading("CC(C)(C)OC(=O)NCCCCNC(=O)C1CCC2(CC1)OOC1(O2)C2CC3CC(C2)CC1C3 (stereo not shown)")
0.3

Give measured LD50 HepG2 for every item shown.
1. c1ccc(N2N=NNC23OOC2(O3)C3CC4CC(C3)CC2C4)cc1 (stereo not shown)
2. CC(C)(C)OC(=O)NCCCCN [LC64, tert-butyl(4-aminobutyl)carbamate]
3. C1C2CC3CC1CC(C2)C31OOC2(CCC(Nc3nnn[nH]3)CC2)OO1 (stereo not shown)
4. NCC1CCC2(CC1)OOC1(O2)C2CC3CC(C2)CC1C3 (stereo not shown)
5. NCCCCNC(=O)C1CCC2(CC1)OOC1(O2)C2CC3CC(C2)CC1C3 (stereo not shown)
6. O=c1nn[nH]n1-c1ccccc1
7. C1C2CC3CC1CC(C2)C31OOC2(CCC(Nc3nnn[nH]3)CC2)O1 (stereo not shown)

Result string:
1.0
1.0
1.0
1.0
1.0
1.0
1.0
